The reported numbers originate from ChEMBL document CHEMBL1145214.

Target: GABA A receptor alpha-2/beta-2/gamma-2 (Homo sapiens, UniProt P18507+P47869+P47870)
Sequence (P47870 whole entry): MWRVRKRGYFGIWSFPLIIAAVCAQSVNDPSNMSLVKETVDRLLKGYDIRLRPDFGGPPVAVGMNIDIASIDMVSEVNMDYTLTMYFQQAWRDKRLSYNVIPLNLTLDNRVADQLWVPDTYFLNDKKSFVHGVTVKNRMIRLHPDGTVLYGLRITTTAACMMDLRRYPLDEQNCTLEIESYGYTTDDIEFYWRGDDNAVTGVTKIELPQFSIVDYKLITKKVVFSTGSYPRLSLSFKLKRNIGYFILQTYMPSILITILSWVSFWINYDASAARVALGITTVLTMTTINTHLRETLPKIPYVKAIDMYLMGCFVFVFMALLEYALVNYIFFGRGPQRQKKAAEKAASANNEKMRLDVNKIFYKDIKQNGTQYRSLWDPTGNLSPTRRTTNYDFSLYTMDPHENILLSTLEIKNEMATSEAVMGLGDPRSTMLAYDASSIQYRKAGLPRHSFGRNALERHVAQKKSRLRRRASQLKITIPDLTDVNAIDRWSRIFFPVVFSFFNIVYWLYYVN
Sequence (P18507 whole entry): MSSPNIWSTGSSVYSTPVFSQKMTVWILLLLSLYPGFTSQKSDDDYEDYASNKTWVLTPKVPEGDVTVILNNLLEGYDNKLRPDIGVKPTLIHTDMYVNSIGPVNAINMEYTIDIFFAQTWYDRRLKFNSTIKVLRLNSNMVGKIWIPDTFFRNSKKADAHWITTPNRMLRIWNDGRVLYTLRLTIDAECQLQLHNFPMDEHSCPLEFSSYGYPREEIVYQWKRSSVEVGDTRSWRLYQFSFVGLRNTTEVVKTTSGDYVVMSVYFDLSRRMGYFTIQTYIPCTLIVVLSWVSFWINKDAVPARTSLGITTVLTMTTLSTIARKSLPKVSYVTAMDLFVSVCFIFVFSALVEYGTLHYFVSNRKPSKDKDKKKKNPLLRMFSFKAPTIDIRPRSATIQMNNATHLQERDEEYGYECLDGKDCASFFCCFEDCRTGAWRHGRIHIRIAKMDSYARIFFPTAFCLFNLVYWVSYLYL
Sequence (P47869 whole entry): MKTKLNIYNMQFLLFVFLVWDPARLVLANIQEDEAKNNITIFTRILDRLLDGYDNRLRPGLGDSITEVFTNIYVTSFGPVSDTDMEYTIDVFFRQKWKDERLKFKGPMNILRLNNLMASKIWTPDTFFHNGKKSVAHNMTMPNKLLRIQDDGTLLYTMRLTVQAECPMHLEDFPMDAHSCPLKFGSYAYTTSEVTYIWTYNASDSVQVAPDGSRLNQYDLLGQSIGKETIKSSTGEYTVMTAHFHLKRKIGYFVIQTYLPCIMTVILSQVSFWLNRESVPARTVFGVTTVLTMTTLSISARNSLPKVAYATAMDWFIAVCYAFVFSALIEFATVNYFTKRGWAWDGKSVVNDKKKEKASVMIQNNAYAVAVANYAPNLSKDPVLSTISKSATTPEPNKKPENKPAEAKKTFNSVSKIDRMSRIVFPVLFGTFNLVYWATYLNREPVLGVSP
Experiment: Effective concentration against GABA-evoked chloride currents mediated by human Gamma-aminobutyric acid GABA-A receptor alpha2-beta2-gamma2L expressed in Xenopus oocytes
Binned EC50; ranges: label 0: < 2 µM; label 1: ≥ 2 µM and < 6 µM; label 2: ≥ 6 µM

Past entries and their recorded results:
| COMPOUND | CATEGORY_LABEL |
| --- | --- |
| CCOC(=O)c1cn(-c2ccccc2)c(-c2ccc(C)cc2)n1 | label 1 |
| CCOC(=O)c1cn(-c2ccc(Cl)cc2Cl)c(-c2ccc(NC(C)=O)cc2)n1 | label 2 |
| CCOC(=O)c1cn(-c2ccccc2)c(-c2ccccc2)n1 | label 2 |
| CCOC(=O)c1cn(-c2ccccc2)c(-c2ccc(Cl)cc2)n1 | label 1 |

Query block: Class for "CCOC(=O)c1cn(-c2ccc(Cl)cc2Cl)c(-c2ccc(N)cc2)n1" ?
Result block: label 1
